Measured pIC50 by item
target: H-2K^b (Mus musculus, UniProt P01901); assay: biochemical; type: binding
Sequence (P01901 22-369): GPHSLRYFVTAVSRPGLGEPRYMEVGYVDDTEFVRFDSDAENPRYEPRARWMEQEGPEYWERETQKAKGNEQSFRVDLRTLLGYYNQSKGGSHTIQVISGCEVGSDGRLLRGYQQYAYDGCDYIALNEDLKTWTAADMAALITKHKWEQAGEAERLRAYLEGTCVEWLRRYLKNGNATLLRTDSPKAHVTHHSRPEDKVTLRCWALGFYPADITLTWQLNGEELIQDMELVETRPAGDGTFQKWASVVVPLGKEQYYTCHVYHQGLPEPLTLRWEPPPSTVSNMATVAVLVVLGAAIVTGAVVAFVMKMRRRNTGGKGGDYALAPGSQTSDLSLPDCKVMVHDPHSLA
Sequence (P61769 21-119, further chain): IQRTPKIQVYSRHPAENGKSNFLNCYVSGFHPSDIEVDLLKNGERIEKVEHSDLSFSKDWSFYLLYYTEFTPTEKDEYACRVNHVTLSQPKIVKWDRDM
Ends that are not written are not given here.
Keep it numeric: pIC50 is minus log10 of the concentration in mol/L.

Some solved cases for reference:
sequence.string	assay.system	experimental.value
WQTMYTNV [WQTMYTNV]	H-2K^b (Mus musculus, UniProt P01901)	8.18
LAVLFINSI [LAVLFINSI]	H-2K^b (Mus musculus, UniProt P01901)	7.55
TSYKFESV [B8R20-27]	H-2K^b (Mus musculus, UniProt P01901)	9.72
KVEEYCTGL [KVEEYCTGL]	H-2K^b (Mus musculus, UniProt P01901)	6.89

Input line: // query pIC50 value for entry ISLKNYGI [ISLKNYGI]
Output line: 7.80
